B1: RHOBTB3 (parent)
chain: DSCCPAGIFQAMCLLICAEMYQVS

Variants of: B1
Experiment: protein stability index of a GFP-peptide fusion (GPS, HEK-293T) (PSI 1-6); higher = more stable;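 further: lentivirally expressed fusions sorted by FACS into six bins by GFP to DsRed ratio, PSI derived from sequencing read proportions per bin multiplied by bin number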
Settings: c terminus: a fixed tail appended
metric.name: protein stability index
Numbers only.

Hi! Can you tell me protein stability index for each of these variants?
1. A6L
2. I8V
3. Y21I
4. D1M
5. G7Y
6. C13P

1. 2
2. 3.73
3. 4.41
4. 3.85
5. 2.8
6. 2.42

Hi! Can you tell me protein stability index for each of these variants?
1. I16N
2. G7H
3. C13I
4. Q22I
5. A11I

1. 2.67
2. 2.75
3. 4.59
4. 2.2
5. 2.4
